- assay target: Arachidonate 5-lipoxygenase-activating protein (Homo sapiens)
- Sequence (P20292 whole entry): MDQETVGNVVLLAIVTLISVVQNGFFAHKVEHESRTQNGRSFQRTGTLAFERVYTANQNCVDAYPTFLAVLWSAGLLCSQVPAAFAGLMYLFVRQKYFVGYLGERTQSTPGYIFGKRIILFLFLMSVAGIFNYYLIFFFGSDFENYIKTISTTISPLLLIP
- procedure details: Inhibition of FLAP in human neutrophils assessed as suppression of A23187-stimulated 5-LO product formation using arachidonic acid as substrate preincubated for 15 mins followed by A23187/arachidonic acid addition after 10 mins RP-HPLC/UV analysis
API: label(entry) gives met if the entry's IC50 is strictly smaller than 200 nM; on equality or larger values it gives not met.

Known results for molecules:
INSERT INTO results (molecule, assay_target, label_value) VALUES
  ('CC(C)Cc1ccc(C(C)c2nc3cc(OCc4ccccn4)ccc3n2Cc2ccccc2C(F)(F)F)cc1 (stereo not given)', 'Arachidonate 5-lipoxygenase-activating protein (Homo sapiens)', 'met'),
  ('C=CCOc1ccc2c(c1)nc(C(C)c1ccc(CC(C)C)cc1)n2Cc1ccccc1C(F)(F)F (stereo not given)', 'Arachidonate 5-lipoxygenase-activating protein (Homo sapiens)', 'met'),
  ('CC(C)Cc1ccc(C(C)c2nc3cc(OCc4ccccc4C#N)ccc3n2Cc2ccccc2Cl)cc1 (stereo not given)', 'Arachidonate 5-lipoxygenase-activating protein (Homo sapiens)', 'met'),
  ('COC(=O)COc1ccc2c(c1)nc(C(C)c1ccc(CC(C)C)cc1)n2Cc1ccccc1C(F)(F)F (stereo not given)', 'Arachidonate 5-lipoxygenase-activating protein (Homo sapiens)', 'not met');

Could you now look at the following molecule, please?
Exercise: Dear colleague, could you confirm whether IC50 of CC(C)Cc1ccc(C(C)c2nc3cc(C#N)ccc3n2Cc2ccccc2Cl)cc1 (stereo not given) falls below 200 nM? Thanks.
Key: met

Where do these numbers come from? They come from ChEMBL document CHEMBL3865817.
